# System: Staphylococcus aureus
# Protocol: Bactericidal activity against Staphylococcus aureus ATCC 6538 cultured in MH medium assessed as reduction in bacterial survival incubated for 48 hrs by microbroth dilution method
# Type: functional
# Condition Info: ATCC 6538, 48 h
Overview of reported MBC across a group of molecules:
# value in µg/mL; strip the unit string

Example entries begin here.
CCn1cc(C(=O)O)c(=O)c2cc(F)c(N3CC[N+]4(CC3)CN3C(C)=CC(C)=C(C(=O)O)C3=N4)nc21.[Cl-]; 128
COc1c(N2CCNC(C)C2)c(F)cc2c(=O)c(C(=O)O)cn(C3CC3)c12 (centres undefined); 0.25
CCn1cc(C(=O)O)c(=O)c2cc(F)c(N3CC[N+]4(CN5C(C)=CC(C)=C(C(=O)O)C5=N4)C(C)C3)c(F)c21.[Cl-] (centres undefined); 64

INPUT: Which measured MBC value corresponds to `CCn1cc(C(=O)O)c(=O)c2cc(F)c(N3CC[N+]4(CC3)CN3C(=N4)C(C(=O)O)=Cc4ccccc43)nc21.[Cl-]` ?
OUTPUT: 8

* * *

As shown below, each of these molecules has a reported MBC value.
# Test system: Bacillus spizizenii
# Protocol: Bactericidal activity against Bacillus subtilis ATCC 6633 cultured in MH medium assessed as reduction in bacterial survival incubated for 48 hrs by microbroth dilution method
# Format: functional
# Condition Info: ATCC 6633, 48 h
The reply should contain only the number, in mg/L.

CCn1cc(C(=O)O)c(=O)c2cnc(N3CCNCC3)nc21; 2

INPUT: I'm curious: which MBC was measured for CCn1cc(C(=O)O)c(=O)c2cc(F)c(N3CC[N+]4(CN5C(=N4)C(C(=O)O)=Cc4ccccc45)C(C)C3)c(F)c21.[Cl-] (stereo not given) tested on Bacillus spizizenii?
OUTPUT: 0.5

INPUT: Please provide the recorded MBC for `CCn1cc(C(=O)O)c(=O)c2cnc(N3CC[N+]4(CC3)CN3C(=N4)C(C(=O)O)=Cc4ccccc43)nc21.[Cl-]` , tested on Bacillus spizizenii.
OUTPUT: 64

INPUT: API: value(readout=MBC, system=Bacillus spizizenii) for record `CCn1cc(C(=O)O)c(=O)c2cc(F)c(N3CCNCC3)cc21`
OUTPUT: 0.125

INPUT: Value wanted: MBC (Bacillus spizizenii) of entry COc1c(N2CC[N+]3(CN4C(C)=CC(C)=C(C(=O)O)C4=N3)C(C)C2)c(F)cc2c(=O)c(C(=O)O)cn(C3CC3)c12.[Cl-] (stereo not given)
OUTPUT: 2

INPUT: Recall the recorded MBC for COc1c(N2CC[N+]3(CN4C(=N3)C(C(=O)O)=Cc3ccccc34)C(C)C2)c(F)cc2c(=O)c(C(=O)O)cn(C3CC3)c12.[Cl-] (stereo not given) with Bacillus spizizenii and state it.
OUTPUT: 32

INPUT: Can you look up MBC on Bacillus spizizenii for `CC1=CC(C)=C(C(=O)O)C2=N[N+]3(CCN(c4cc5c(cc4F)c(=O)c(C(=O)O)cn5C4CC4)CC3)CN12.[Cl-]` ?
OUTPUT: 8

INPUT: Form entry - test system: Bacillus spizizenii; read-out: MBC; molecule: `CCn1cc(C(=O)O)c(=O)c2cc(F)c(N3CCNCC3)nc21`
OUTPUT: 0.125

INPUT: Hello, I am looking for reported MBC with Bacillus spizizenii for C[C@@H]1CN(c2c(F)c(N)c3c(=O)c(C(=O)O)cn(C4CC4)c3c2F)C[C@H](C)[N+]12CN1C(=N2)C(C(=O)O)=Cc2ccccc21.[Cl-] (stereo not given in full) . Could you help?
OUTPUT: 4

INPUT: Lab note: need MBC with Bacillus spizizenii for entry `COc1c(N2C[C@@H]3CCCN[C@@H]3C2)c(F)cc2c(=O)c(C(=O)O)cn(C3CC3)c12` , please look it up.
OUTPUT: 0.032

INPUT: Any idea what MBC came out for `C[C@@H]1CN(c2c(F)c(N)c3c(=O)c(C(=O)O)cn(C4CC4)c3c2F)C[C@H](C)N1` on Bacillus spizizenii?
OUTPUT: 0.063

INPUT: Lab request: please report MBC under test system Bacillus spizizenii for `CCn1cc(C(=O)O)c(=O)c2cc(F)c(N3CC[N+]4(CC3)CN3C(=N4)C(C(=O)O)=Cc4ccccc43)nc21.[Cl-]`
OUTPUT: 2
